target.desc: T1, Insulin receptor prepared according to Bass et al., 1996: soluble human insulin receptor-immunoglobulin heavy … (human, UniProt P06213 28-956)
T1 construct: extracellular domain; Eu3+-labelled in TR-FRET; also called IR; sIR-Fc; not shown: immunoglobulin heavy chain constant domains that replace the transmembrane and i
test.details: phage ELISA, vs IGF-1R
measure.name: IR/IGF-1R Comparison (ratio)
# output: bare number, implied unit ratio

Record IQQELTFYDLLHRLVRSELGS [20E2B-3-D2-IGFR] . Reported IR/IGF-1R Comparison: 0.1

// PPLASDLDVQFYGWFVQQVSPPGRGG [H2CA-2-B3-IGFR] : IR/IGF-1R Comparison value = 0.3

Record summary for RGKTAAVIVGRPADPFYHKLSELLQGG [26Hα-3-E8-IR] : reported IR/IGF-1R Comparison = 0.2

So, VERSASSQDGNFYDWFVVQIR [A6S-2-D1-IR] ? Its IR/IGF-1R Comparison was 0.4

Lab book: IR/IGF-1R Comparison of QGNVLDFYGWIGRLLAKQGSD [20E2B-3-D12-IGFR] noted as 0.1

// recorded IR/IGF-1R Comparison for IWATGDFYRLLSQLVMGRVGT [20E2B-2-88-IGFR] : 0.1

Lab book: IR/IGF-1R Comparison of PDLHKGFYAQLAQLIRGQLLS [20E2H-3-E3-IGFR] noted as 0.1
